# IC50 per entry
# test_target: Recombinant JAK2 (Homo sapiens)
# Construct: purchased Carna Biosciences
# Sequence (O60674 whole entry): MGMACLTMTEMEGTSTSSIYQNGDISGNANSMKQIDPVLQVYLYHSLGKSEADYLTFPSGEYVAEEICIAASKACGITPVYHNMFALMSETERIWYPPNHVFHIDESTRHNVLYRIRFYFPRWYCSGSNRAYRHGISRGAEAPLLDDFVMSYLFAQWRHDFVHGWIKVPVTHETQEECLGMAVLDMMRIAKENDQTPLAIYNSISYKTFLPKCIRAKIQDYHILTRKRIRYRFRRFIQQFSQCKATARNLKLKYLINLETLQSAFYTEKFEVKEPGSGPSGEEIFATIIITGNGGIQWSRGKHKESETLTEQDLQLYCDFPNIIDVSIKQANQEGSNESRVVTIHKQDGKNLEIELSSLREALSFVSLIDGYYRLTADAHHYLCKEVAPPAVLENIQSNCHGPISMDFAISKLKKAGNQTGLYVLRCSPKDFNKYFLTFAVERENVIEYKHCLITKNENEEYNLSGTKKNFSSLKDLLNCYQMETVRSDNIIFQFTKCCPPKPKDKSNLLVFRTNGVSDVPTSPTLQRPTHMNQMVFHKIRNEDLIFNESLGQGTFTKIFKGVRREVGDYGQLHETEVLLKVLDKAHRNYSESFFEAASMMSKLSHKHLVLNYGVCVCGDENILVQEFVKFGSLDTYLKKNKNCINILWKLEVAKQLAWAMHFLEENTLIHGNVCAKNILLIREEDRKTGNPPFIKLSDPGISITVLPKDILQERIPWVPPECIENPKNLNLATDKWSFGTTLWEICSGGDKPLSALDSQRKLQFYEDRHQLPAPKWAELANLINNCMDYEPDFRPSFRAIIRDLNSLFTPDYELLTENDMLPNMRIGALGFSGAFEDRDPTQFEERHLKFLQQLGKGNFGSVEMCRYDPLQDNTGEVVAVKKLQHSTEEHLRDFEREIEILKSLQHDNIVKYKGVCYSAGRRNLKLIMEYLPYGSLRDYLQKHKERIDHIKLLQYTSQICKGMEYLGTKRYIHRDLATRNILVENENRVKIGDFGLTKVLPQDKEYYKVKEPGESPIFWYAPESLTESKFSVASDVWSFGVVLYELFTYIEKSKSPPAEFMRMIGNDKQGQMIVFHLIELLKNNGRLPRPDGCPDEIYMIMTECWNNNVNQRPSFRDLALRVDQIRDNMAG
# experimental_protocol: JAK biochemical assay (LANCE Ultra TR-FRET), JAK2
# recorded_conditions: recombinant JAK2, TR-FRET; read-out: Biochemical Assay (μM) JAK2
# Procedure: Recombinant JAK1, JAK2, JAK3 and TYK2 (Carna Biosciences) were used to develop biochemical assays in 50 mM HEPES pH 7.5, 1 mM EGTA, 10 mM MgCl2, 2 mM DTT and 0.01% Tween-20. […] The intensity of the light emission is proportional to the level of ULight substrate phosphorylation. Compounds which interfere with JAK enzyme activity show a lesser substrate phosphorylation and values are projected in terms of % inhibition in comparison to vehicle control.
attribute_measured: IC50

- molecule: "N#CC(c1ccc(-n2cc(-c3ccnc4[nH]cnc34)cn2)nc1)N1CC(F)(F)C1 (centres unmarked)"
  endpoint_result: "> 0.5 µM"
- molecule: "CS(=O)(=O)N1CC(C(C#N)c2ccc(-n3cc(-c4ccnc5[nH]cnc45)cn3)nc2)C1 (centres unmarked)"
  endpoint_result: "> 0.5 µM"
- molecule: "O[C@@](c1ccc(-n2cc(-c3ccnc4[nH]cnc34)cn2)nc1)(C1CCN(C2COC2)C1)C(F)(F)F (some centres unmarked)"
  endpoint_result: "< 0.1 µM"
- molecule: "CNCCC(c1ccc(-n2cc(-c3ccnc4[nH]cnc34)cn2)nc1)C(F)(F)F (centres unmarked) [Example 1200]"
  endpoint_result: "0.015 µM"
- molecule: "O=C(NCC1CCCC1)n1cc(-c2ccnc3[nH]c(=O)[nH]c23)cn1"
  endpoint_result: "> 1 µM"
- molecule: "N#CCC(NC(=O)n1cc(-c2ccnc3[nH]c(=O)[nH]c23)cn1)C(F)(F)F (centres unmarked)"
  endpoint_result: "< 0.5 µM"
- molecule: "CS(=O)(=O)CC(Cc1ccc(-n2cc(-c3ccnc4[nH]cnc34)cn2)nc1)C(F)(F)F (centres unmarked)"
  endpoint_result: "> 0.5 µM"
- molecule: "CC(C)C(O)(c1ccc(-n2cc(-c3ccnc4[nH]cnc34)cn2)nc1)C(F)(F)F (centres unmarked)"
  endpoint_result: "> 0.1 µM"
